# assayRemarks: Cytotoxicity against human COLON cells after 48 hrs
# Type: functional
For each of the molecules below, state its TGI.
Respond numerically; units are µM and should not be typed.

What value of TGI has been reported for the following molecule? Cc1cn2c(/C=C3/C(=O)Nc4cc(Cl)ccc43)c(C)nc2s1
66.1

What value of TGI has been reported for the following molecule? COc1nc2sccn2c1/C=C1/C(=O)N(C)c2ccccc21
60.3

What value of TGI has been reported for the following molecule? Cc1cn2c(/C=C3/C(=O)Nc4c3ccc3ccccc43)c(C)nc2s1
58.9

What value of TGI has been reported for the following molecule? COc1ccc2c(c1)C(=Cc1c(OC)nc3sccn13)C(=O)N2 (mixture of isomers)
7.59

What value of TGI has been reported for the following molecule? O=C1Nc2cc(Cl)ccc2C1=Cc1c(-c2ccccn2)nc2sccn12 (mixture of isomers)
21.9

Where do the numbers come from? From ChEMBL document CHEMBL2062525.
